test system: NCI-H522; experiment: NCI tumour cell line growth inhibition, 48 h
Structures can show the parent of a compound that is named as a salt. Calls of active or inactive are those of the source. No stated cut-off is given here; in the data, active = GI50 up to about 1.1 µM and inactive = higher.
Can you answer with just one of these options? active, inactive

Look up the recorded call for Cc1cc(Cl)ccc1NC(=O)CC1SC(NC(=O)c2ccccc2Cl)=NC1=O (stereo not drawn) in this test.
inactive

What is the recorded call for this compound in the test? CC1OC(OC2C(OC(=O)[C@]34CCC(C)(C)C[C@H]3C3=CC[C@@H]5[C@@]6(C)CC[C@H](OC7OC(CO)C(O)C(O)C7OC7OC(CO)C(O)C(O)C7O)C(C)(C)[C@@H]6CC[C@@]5(C)[C@]3(C)CC4)OCC(O)C2O)C(O)C(O)C1OC1OCC(O)C(O)C1O (stereo partly drawn)
inactive

Fill in: this test's call for Cc1cc2ccc(OC(=O)c3ccc(NC(=N)N)cc3)cc2oc1=O is ___
inactive

Please indicate how the test categorized COc1ccc(Cc2nccc3cc(OC)c(OC)cc23)cc1OC [PAPAVERINE HYDROCHLORIDE] .
inactive

Query: recorded result category for Cc1ccc(/N=N/c2c(O)ccc3ccccc23)cc1 in this test
inactive

Name the outcome recorded for CCc1nc(N)nc(N)c1-c1ccc2c(c1)nnn2CCc1ccccc1 in the assay.
inactive

State the result this test recorded for C/C(=N/NC(N)=S)c1ccc2ccccc2c1 .
inactive

Kindly provide the recorded test outcome for the following compound: Cc1nc(O)nc(CC(O)(c2ccccc2)c2ccccc2)c1-c1ccccc1
inactive

What classification did CC(C)=CCCC(C)CCOS(=O)C(F)(F)F (stereo not drawn) end up with in this test?
inactive

Record request — test call for CN(Cc1cnc2nc(N)nc(N)c2n1)c1ccc(C(=O)NC(CCC(=O)O)C(=O)O)cc1C(F)(F)F (stereo not drawn)
active

Can you look up the reported call for Cc1cc(N(CCC#N)CCC#N)ccc1/C=C1N=C(/C=C\c2ccccc2)OC\1=O for me?
inactive

Record lookup: outcome of this test for O=C(Cc1nc2ccc([N+](=O)[O-])cc2nc1O)C(=O)Nc1ccccc1[N+](=O)[O-] ?
inactive

Any idea what this test logged for CCOc1ccc(NC(=O)C(=O)C(C(=O)c2ccc3ccccc3c2)C2OC(=O)c3ccccc32)cc1 (stereo not drawn) ?
inactive

Tell me the assay call for O=C(NNCC(F)(F)F)c1ccncc1 please.
inactive

Tell me the recorded outcome of this test for CC1=NN(C(=O)c2ccncc2)C(=O)C1/N=N/c1ccc(F)cc1 (stereo not drawn) .
inactive

What did this assay record as the result for COc1cccc(-c2c(-c3ccccc3)[nH]c(C)c2C(=O)ONC(=O)c2ccccc2)c1 ?
inactive

What did this assay record as the result for Cc1ccc(S(=O)(=O)NC(=O)NCCC(=O)O)cc1 ?
inactive

What did the test return for O=C1C(Cl)C(c2ccc(Cl)cc2)N1n1cnc2ccccc2c1=O (stereo not drawn) ?
inactive

Please share the test call associated with C/C(=N\NC(N)=O)C(CN1CCOCC1)C(c1ccccc1)c1c(O)c2ccccc2oc1=O (stereo not drawn) .
inactive

Can you look up the reported call for COC(=O)CCCc1c(-c2[nH]c3ccccc3c2CCCC(=O)OC)[nH]c2ccccc12 for me?
inactive

// return assay outcome for CS(=O)(=O)OCCN(CCOS(C)(=O)=O)c1ccc(/C=N/N=c2/nc[nH]c3nc[nH]c23)cc1
inactive

For COc1cc(C[S+]([O-])c2ccc(O)cc2)cc(OC)c1OC (stereo not drawn) , which call appears in the assay record?
inactive

Could you please tell me the result logged for CC1=C(O)C(=O)c2ccccc2C1=O in this assay?
inactive

Recorded call for N#Cc1ccc(Nc2cnc3cc(N)ccc3n2)cc1 ?
inactive

GET /call?item= Cc1ccc(S(=O)(=O)CC2(Br)CCc3ccccc3C2=O)cc1 (stereo not drawn) returns the recorded outcome of this test.
inactive

Name the outcome recorded for O=[N+]([O-])c1ccc(N/N=C/CC(O)(C(F)(F)F)C(F)(F)F)c([N+](=O)[O-])c1 in the assay.
inactive

Recorded test call requested for COC(=O)c1ccc(C(=O)OC)c2nc3cc(Cl)ccc3nc12
inactive

I would be grateful if you could indicate the recorded call for O=C1CCC2(c3ccccc3)Nc3ccc(Cl)cc3N12 (stereo not drawn) .
inactive

Hi, do you know how CN(C)c1ccc(/C=C(\NC(=O)c2ccccc2)c2nc3cncnc3[nH]2)cc1 came out in this test?
inactive

What is the recorded call for this compound in the test? O=C1CSC(/C(=C\c2ccc(Cl)cc2)c2nc3ccccc3[nH]2)=N1
inactive

Per the assay record, what outcome was assigned to O=[N+]([O-])c1ccc2sc(/C=N/c3ccc(O)cc3)cc2c1 ?
inactive

What was the test verdict on CC(NC(=O)C(N)Cc1ccc(O)cn1)C(=O)O (stereo not drawn) ?
inactive

Per the records of this test, what outcome belongs to COP(=O)(/C=C/c1cc(C(=O)OCc2ccccc2)n(S(=O)(=O)c2ccccc2)c1)OC ?
inactive

Which result was noted for this compound in the test: CC1=C/C(=N/N2C(=O)/C(=C/c3ccc(Cl)cc3)N=C2c2ccccc2)CC(C)(C)C1
inactive

// return assay outcome for CC1=NN(c2nc(N)nc(C(C)Sc3cc(Cl)c(C)cc3S(N)(=O)=O)n2)C(C)(C)C1 (stereo not drawn)
inactive

Please let me know the test result on file for COc1ccc(/C=C2/C(=O)C(c3ccccc3)N(c3ccccc3)C2=O)cc1OC (stereo not drawn) .
inactive

// param item: Cc1cccc2c(O)c3c(O)cc(O)cc3nc12 ; yields the recorded call
inactive

For O=[N+]([O-])c1ccc(-c2nn3c(C45CC6CC(CC(C6)C4)C5)nnc3s2)c(Cl)c1 , what call appears in the results of this test?
inactive

Origin of the recorded values: ChEMBL document CHEMBL1201862
